Biological target: recombinant human colony stimulating factor 1 receptor (FMS) (Homo sapiens, UniProt P07333)
Construct: containing the catalytic domain (amino acids 538-910); His tag
Assay: Biochemical cFMS (CSF1R) fluorescence polarization kinase assay
Conditions: 10 μM ATP, 100 μM substrate, 60 minutes
pIC50: −log10 of the molar value.

Compound | pIC50
Nc1ncnc2c3c(n(-c4ccc(NC(=O)Nc5ccccc5F)cc4)c12)CCC3 [Compound 39] | 6.00 to 7.00
C[C@@H](NC(=O)Nc1ccc(-n2c3c(c4ncnc(N)c42)CCC3)cc1)c1ccc(F)cc1 [Compound 73] | 6.00 to 7.00
COc1ccc(C(F)(F)F)cc1NC(=O)Nc1ccc(-n2c3c(c4ncnc(N)c42)CCC3)cc1 [Compound 58] | 6.00 to 7.00
Nc1ncnc2c3c(n(-c4ccc(NC(=O)Nc5ccc(C(F)(F)F)cc5)cc4)c12)CCC3 [Compound 21] | 6.00 to 7.00
Nc1ncnc2c3c(n(-c4ccc(NC(=O)Nc5cc(C(F)(F)F)ccc5Cl)cc4)c12)CCC3 [Compound 69] | 6.00 to 7.00
Cc1ccc(F)c(NC(=O)Nc2ccc(-n3c4c(c5ncnc(N)c53)CCC4)cc2)c1 [Compound 43] | > 7.00
Nc1ncnc2c3c(n(-c4ccc(NC(=O)Nc5cccc(C(F)(F)F)c5)c(F)c4)c12)CCC3 [Compound 63] | 6.00 to 7.00
Nc1ncnc2c3c(n(-c4ccc(NC(=O)Nc5ccccc5)cc4)c12)CCC3 [Compound 4] | > 7.00

* * *

Target: recombinant human colony stimulating factor 1 receptor (FMS) (Homo sapiens)
Construct: containing the catalytic domain (amino acids 538-910); His tag
Assay: Biochemical cFMS (CSF1R) fluorescence polarization kinase assay
Settings: 10 μM ATP, 100 μM substrate, 60 minutes
Description: Biochemical cFMS (CSF1R) Assay: Fluorescence polarization-based kinase biochemical assays were performed in 384 well-plate format using histidine tagged recombinant human colony stimulating factor 1 receptor (FMS) supplied from Invitrogen™ (containing the catalytic domain (amino acids 538-910), expressed in insect cells and activated in vitro via auto phosphorylation) and a modified protocol of the KinEASE™ FP Fluorescein Green Assay supplied from Millipore™. […]
pIC50: −log10 of the molar value.
In this section we review reported pIC50 values for a set of compounds.

Line Notation | pIC50
Nc1ncnc2c3c(n(-c4ccc(NC(=O)Nc5cc(C(F)(F)F)ccc5F)cc4)c12)CCC3 | 6.00 to 7.00
Nc1ncnc2c3c(n(-c4ccc(NC(=O)Nc5cc(C(F)(F)F)ccc5F)c(F)c4)c12)CCC3 | 6.00 to 7.00
Nc1ncnc2c3c(n(-c4ccc(NC(=O)Nc5ccccc5OC(F)F)cc4)c12)CCC3 | 6.00 to 7.00
COc1ccccc1NC(=O)Nc1ccc(-n2c3c(c4ncnc(N)c42)CCC3)cc1 | 6.00 to 7.00
Nc1ncnc2c3c(n(-c4ccc(NC(=O)Nc5cccc(C(F)(F)F)c5)cc4)c12)COC3 | > 7.00
COc1cccc(NC(=O)Nc2ccc(-n3c4c(c5ncnc(N)c53)CCC4)cc2)c1 | > 7.00
COc1cc(NC(=O)Nc2ccc(-n3c4c(c5ncnc(N)c53)CCC4)cc2)ccc1F | > 7.00
N#Cc1ccc(NC(=O)Nc2ccc(-n3c4c(c5ncnc(N)c53)CCC4)cc2)cc1 | < 6.00

* * *

Listed here are compounds together with their documented pIC50.
Molecular target: recombinant human colony stimulating factor 1 receptor (FMS) (Homo sapiens, UniProt P07333)
Construct: containing the catalytic domain (amino acids 538-910); His tag
Sequence (P07333 538-910): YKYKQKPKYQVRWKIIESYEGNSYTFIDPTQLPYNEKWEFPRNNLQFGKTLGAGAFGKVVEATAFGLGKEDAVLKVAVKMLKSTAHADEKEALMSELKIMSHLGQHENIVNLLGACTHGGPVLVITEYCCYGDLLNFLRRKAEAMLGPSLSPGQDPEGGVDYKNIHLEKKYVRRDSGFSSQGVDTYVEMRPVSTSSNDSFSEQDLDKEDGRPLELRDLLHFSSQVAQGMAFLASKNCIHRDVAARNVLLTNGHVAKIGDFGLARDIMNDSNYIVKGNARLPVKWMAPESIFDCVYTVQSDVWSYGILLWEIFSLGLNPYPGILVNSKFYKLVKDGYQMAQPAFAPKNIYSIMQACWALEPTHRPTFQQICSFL
Test: Biochemical cFMS (CSF1R) fluorescence polarization kinase assay
Conditions: 10 μM ATP, 100 μM substrate, 60 minutes
pIC50: −log10 of the molar value.

Line Notation | pIC50
C[C@@H](NC(=O)Nc1ccc(-n2c3c(c4ncnc(N)c42)CCC3)cc1)c1ccccc1 | 6.00 to 7.00
Nc1ncnc2c3c(n(-c4ccc(NC(=O)Nc5cccc(Cl)c5)cc4)c12)CCC3 | 6.00 to 7.00
CS(=O)(=O)c1cccc(NC(=O)Nc2ccc(-n3c4c(c5ncnc(N)c53)CCC4)cc2)c1 | 6.00 to 7.00
N#Cc1cccc(NC(=O)Nc2ccc(-n3c4c(c5ncnc(N)c53)CCC4)cc2)c1 | 6.00 to 7.00
Nc1ncnc2c3c(n(-c4ccc(NC(=O)Nc5cccc(C(F)(F)F)c5)cc4)c12)CCC3 | 6.00 to 7.00
Nc1ncnc2c3c(n(-c4ccc(NC(=O)NCc5ccccc5)cc4)c12)CCC3 | 6.00 to 7.00
Nc1ncnc2c3c(n(-c4ccc(NC(=O)Nc5ccc6c(c5)OCO6)cc4)c12)CCC3 | > 7.00
Nc1ncnc2c3c(n(-c4ccc(NC(=O)NCCc5ccccc5)cc4)c12)CCC3 | 6.00 to 7.00
